# Protocol details: Clearance in BALB-C mouse at 5 mg/kg, iv by LC-MS/MS analysis
# Assay type: ADME, organism-based
# Condition: in vivo
Readout kind: clearance (mL/min/kg)

Compound structure	Recorded number
CS(=O)(=O)N1CCN(Cc2nc3c(N4CCOCC4)nc(-c4cnc(N)nc4)cn3n2)CC1	35.5
CS(=O)(=O)N1CCN(Cc2nc3c(N4CCOCC4)nc(-c4cnc(N)nc4)c(Cl)n3n2)CC1	10.8
CS(=O)(=O)N1CCN(Cc2cc3c(N4CCOCC4)nc(-c4cnc(N)nc4)c(Cl)n3n2)CC1	12.5

* * *

# Assay system: Voltage-gated inwardly rectifying potassium channel KCNH2 (Homo sapiens)
# Sequence (Q12809 whole entry): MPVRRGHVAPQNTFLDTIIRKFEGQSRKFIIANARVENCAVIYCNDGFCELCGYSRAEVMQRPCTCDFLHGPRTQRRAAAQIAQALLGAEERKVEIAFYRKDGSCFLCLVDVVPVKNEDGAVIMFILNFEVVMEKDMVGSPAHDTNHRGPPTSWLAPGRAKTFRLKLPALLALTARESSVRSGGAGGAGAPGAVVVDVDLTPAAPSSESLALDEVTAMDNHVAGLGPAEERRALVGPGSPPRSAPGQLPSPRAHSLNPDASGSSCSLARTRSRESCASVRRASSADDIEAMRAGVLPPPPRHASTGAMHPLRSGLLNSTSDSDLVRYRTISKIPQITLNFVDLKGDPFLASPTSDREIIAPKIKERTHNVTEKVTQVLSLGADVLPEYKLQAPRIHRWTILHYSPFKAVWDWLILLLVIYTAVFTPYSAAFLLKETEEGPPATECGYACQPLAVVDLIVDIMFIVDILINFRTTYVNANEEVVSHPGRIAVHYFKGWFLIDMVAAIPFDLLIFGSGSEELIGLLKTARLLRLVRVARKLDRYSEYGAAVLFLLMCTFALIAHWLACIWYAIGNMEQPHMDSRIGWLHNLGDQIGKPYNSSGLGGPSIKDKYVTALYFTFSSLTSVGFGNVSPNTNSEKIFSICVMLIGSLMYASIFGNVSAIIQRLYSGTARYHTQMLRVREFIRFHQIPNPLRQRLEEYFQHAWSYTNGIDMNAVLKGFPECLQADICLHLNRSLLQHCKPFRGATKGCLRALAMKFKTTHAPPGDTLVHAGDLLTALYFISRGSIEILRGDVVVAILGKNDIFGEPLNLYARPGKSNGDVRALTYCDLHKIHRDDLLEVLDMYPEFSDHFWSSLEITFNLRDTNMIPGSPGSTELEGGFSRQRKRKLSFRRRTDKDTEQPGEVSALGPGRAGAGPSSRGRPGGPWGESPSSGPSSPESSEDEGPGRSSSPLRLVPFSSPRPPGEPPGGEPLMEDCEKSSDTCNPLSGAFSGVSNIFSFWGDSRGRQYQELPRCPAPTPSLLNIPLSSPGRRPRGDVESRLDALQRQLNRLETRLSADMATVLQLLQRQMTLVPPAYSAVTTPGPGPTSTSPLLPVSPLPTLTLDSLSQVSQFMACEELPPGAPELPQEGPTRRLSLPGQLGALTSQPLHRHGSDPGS
Measured IC50 of individual entries
Readout kind: IC50

Compound structure	Readout kind	Result
CS(=O)(=O)N1CCN(Cc2nc3c(N4CCOCC4)nc(-c4cnc(N)nc4)cn3n2)CC1	IC50	> 30 µM
CS(=O)(=O)N1CCN(Cc2cn3nc(-c4cnc(N)nc4)nc(N4CCOCC4)c3n2)CC1	IC50	> 30 µM
CS(=O)(=O)N1CCN(Cc2cc3c(N4CCOCC4)nc(-c4cnc(N)nc4)c(Cl)n3n2)CC1	IC50	> 30 µM
CS(=O)(=O)N1CCN(Cc2nc3c(N4CCOCC4)nc(-c4cnc(N)nc4)c(Cl)n3n2)CC1	IC50	> 30 µM
CS(=O)(=O)N1CCN(Cc2cc3c(N4CCOCC4)nc(-c4cnc(N)nc4)cn3n2)CC1	IC50	> 30 µM
